Listed below: pIC50 values for each entry.
# TARGET_SYSTEM: A*2601 (Homo sapiens, UniProt P04439, A114D/A173T/A270S/D101N/D185E/E277Q/E87N/F33Y/G231S/I121R/I218V/K168Q/L180W/L300P/L318F/P208A/P217A/Q86R/Q94H/R138Q/S129P/T187R/T323A/T345S/V100A/V358M)
# EXPERIMENTAL_DETAILS: biochemical
# Format: binding
No end group written: not given here.
The quantity pIC50 is defined as the negative base-10 logarithm of the molar concentration.

Reference set (6 entries):
{"RESIDUE_CODES": "WTSTDNKNY [Peptide 1580.31]", "VALUE_TYPE": "pIC50", "READOUT_VALUE": 5.32}
{"RESIDUE_CODES": "QTEPDTSNY [Peptide 1549.44]", "VALUE_TYPE": "pIC50", "READOUT_VALUE": 5.30}
{"RESIDUE_CODES": "ATTDLTIVY [Peptide 1549.51]", "VALUE_TYPE": "pIC50", "READOUT_VALUE": 6.79}
{"RESIDUE_CODES": "VTQGNLELTY [Peptide 9012.0147]", "VALUE_TYPE": "pIC50", "READOUT_VALUE": 5.17}
{"RESIDUE_CODES": "ITDNNNGTY [Peptide 9012.0120]", "VALUE_TYPE": "pIC50", "READOUT_VALUE": 6.34}
{"RESIDUE_CODES": "TTSPSYTY [Peptide 9012.0100]", "VALUE_TYPE": "pIC50", "READOUT_VALUE": 5.46}

Consider the additional sequence presented here.
For reference, reported pIC50 for VTADLRIVY [Peptide 1549.50] stands at 6.92

* * *

We begin with a simple list: items and their reported IC50.
# TARGET_SYSTEM: A*0206 (Homo sapiens, UniProt P04439, D140Y/D185E/D98H/E176V/E277Q/F33Y/G131W/G231S/I119V/I121R/I166T/I218V/L300P/L318F/N151K/N90K/P208A/P217A/Q86G/Q94H/R138H/R169H/T345S)
# EXPERIMENTAL_DETAILS: biochemical
# Type: binding
No end group written: not given here.
Enter your answer as a number in nM; do not include the unit.

{"RESIDUE_CODES": "RLTVTTITV [Peptide 9013.0067]", "IC50 / nM": 704}
{"RESIDUE_CODES": "RLTVKTITVSA [Peptide 9013.0319]", "IC50 / nM": 1360}
{"RESIDUE_CODES": "FLQSTQELFI [Peptide 9013.0179]", "IC50 / nM": 1110}
{"RESIDUE_CODES": "MTSNPAIPV [Peptide 1539.03]", "IC50 / nM": 911}

In plain terms, VQWAYDNEL [Peptide 86.0196] has a documented IC50 of 1100

Please fill in: IC50 reported for RMLQHLLFI [Peptide 1545.04] = 14

Reported IC50 for TQQATPGPV [Peptide 9013.0027] was 5870

Record YTCGIQNSV [Peptide 9013.0096] , field IC50: 342

Note to self: IC50 recorded for YVVWDSIYYI [Peptide 1578.52] was 49

IC50 for AQYSWFVNGV [Peptide 9013.0172] is 13

Quick note, IC50 for FIQGAVISFV [Peptide 1578.12] landed at 345

The sequence listed as KLMSNLLSI [Peptide 1578.21] shows IC50 equal to 34
